Molecular target: PI3Kα H1047R (T47D cells) (Homo sapiens, UniProt P42336, H1047R)
Construct: endogenous in cells; host or cells: T47D cells
Sequence (P42336 whole entry H1047R): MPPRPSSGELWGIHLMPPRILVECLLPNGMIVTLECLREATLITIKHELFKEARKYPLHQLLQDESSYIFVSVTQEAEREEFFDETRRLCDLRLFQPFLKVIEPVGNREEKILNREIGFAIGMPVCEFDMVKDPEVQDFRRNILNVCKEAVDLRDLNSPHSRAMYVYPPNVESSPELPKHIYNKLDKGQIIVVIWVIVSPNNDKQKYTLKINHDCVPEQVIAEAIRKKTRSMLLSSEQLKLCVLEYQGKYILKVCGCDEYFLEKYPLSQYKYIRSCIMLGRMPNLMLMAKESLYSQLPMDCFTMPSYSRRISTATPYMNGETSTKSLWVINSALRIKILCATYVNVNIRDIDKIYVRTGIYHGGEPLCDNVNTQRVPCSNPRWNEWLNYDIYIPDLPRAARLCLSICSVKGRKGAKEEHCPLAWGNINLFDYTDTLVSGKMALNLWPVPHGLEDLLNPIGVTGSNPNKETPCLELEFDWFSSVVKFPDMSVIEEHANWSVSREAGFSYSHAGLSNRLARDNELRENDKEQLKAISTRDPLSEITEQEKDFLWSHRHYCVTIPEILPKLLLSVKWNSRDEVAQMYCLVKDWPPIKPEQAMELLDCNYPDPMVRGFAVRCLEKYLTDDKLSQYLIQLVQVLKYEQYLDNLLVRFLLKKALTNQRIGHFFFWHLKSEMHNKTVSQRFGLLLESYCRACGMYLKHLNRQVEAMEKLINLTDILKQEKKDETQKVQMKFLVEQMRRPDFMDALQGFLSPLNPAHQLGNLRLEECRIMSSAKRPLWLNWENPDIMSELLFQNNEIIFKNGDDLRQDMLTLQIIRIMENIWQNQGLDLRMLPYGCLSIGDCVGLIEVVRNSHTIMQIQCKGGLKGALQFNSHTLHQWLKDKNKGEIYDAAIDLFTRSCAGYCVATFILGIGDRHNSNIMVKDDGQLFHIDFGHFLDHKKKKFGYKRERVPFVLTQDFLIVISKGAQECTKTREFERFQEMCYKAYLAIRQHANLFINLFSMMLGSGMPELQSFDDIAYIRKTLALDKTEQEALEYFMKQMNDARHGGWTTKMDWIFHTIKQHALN
Sequence (P27986 whole entry partner): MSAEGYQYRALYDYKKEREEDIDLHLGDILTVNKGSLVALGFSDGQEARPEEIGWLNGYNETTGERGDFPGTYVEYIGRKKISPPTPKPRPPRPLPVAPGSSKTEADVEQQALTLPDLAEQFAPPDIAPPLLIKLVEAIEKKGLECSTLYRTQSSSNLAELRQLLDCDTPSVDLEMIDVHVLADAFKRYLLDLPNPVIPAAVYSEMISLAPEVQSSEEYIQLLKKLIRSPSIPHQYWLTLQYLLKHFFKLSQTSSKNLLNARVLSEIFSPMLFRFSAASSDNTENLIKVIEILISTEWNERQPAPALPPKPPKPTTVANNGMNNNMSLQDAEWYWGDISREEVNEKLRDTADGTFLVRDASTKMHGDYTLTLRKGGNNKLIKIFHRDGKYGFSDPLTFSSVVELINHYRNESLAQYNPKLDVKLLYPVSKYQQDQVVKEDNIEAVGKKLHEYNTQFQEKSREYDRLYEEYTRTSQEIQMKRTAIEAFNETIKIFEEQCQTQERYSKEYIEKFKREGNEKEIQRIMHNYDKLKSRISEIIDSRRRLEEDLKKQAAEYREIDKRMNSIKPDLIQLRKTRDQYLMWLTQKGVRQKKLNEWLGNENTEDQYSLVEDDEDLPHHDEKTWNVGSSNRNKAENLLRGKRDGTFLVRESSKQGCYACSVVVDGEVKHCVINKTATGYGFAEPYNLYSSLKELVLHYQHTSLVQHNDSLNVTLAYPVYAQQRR
Assay: PI3Kα cellular assay: pAKT HTRF in T47D cells after EGF stimulation
Format: cell-based
Conditions: selectivity T47D (H1047R) over SKBR3 (WT), pAKT HTRF
Description: SKBR3 or T47D cells are seeded in DMEM containing 10% FBS at 25k cells/well into 96-well cell culture format. […] 384 well plate is left overnight at room temperature before reading HTRF on an Envision plate reader. ND denotes value not determined with that assay for the specified compound; • for T47D (H1047R) selectivity over SKBR3 (WT): A denotes >20-fold; B denotes 20-fold≥value>5-fold; C denotes ≤5-fold. […] ND denotes value not determined with that assay for the specified compound.
VALUE TYPE: T47D pAKT S473 HTRF IC50 (H1047R): T47D (H1047R) selectivity over SKBR3 (WT)

Use the examples below as a reference point.
INSERT INTO measurements (molecule, val) VALUES
  ('Cc1cc([C@H](C)Nc2ccccc2S(N)(=O)=O)c2nc(-c3cccc(C(F)F)c3)c(C)c(=O)n2c1', 'C (C denotes ≤5-fold)'),
  ('Cc1cc([C@H](C)Nc2ccccc2C(=O)O)c2nc(C3CCOCC3)cc(=O)n2c1', 'A (A denotes >20-fold)'),
  ('Cc1cc([C@@H](C)Nc2ccccc2C(=O)O)c2nc(C3CCN(C(=O)C4(N)CC4)CC3)cc(=O)n2c1', 'C (C denotes ≤5-fold)'),
  ('Cc1cc(C(C)Nc2ccccc2C(=O)O)c2nc(-c3ccc(F)cc3)c(C#N)c(=O)n2c1 (centres unmarked)', 'A (A denotes >20-fold)'),
  ('Cc1cc([C@@H](C)Nc2ccccc2C(=O)O)c2nc(-c3ccc(C4CN(C)C4)nc3)c(C)c(=O)n2c1', 'C (C denotes ≤5-fold)'),
  ('Cc1cc([C@H](C)Nc2ccccc2C(=O)NS(C)(=O)=O)c2cc(-c3cccc(F)c3)c(C)c(=O)n2c1', 'C (C denotes ≤5-fold)');

Lab note: each molecule below needs its T47D pAKT S473 HTRF IC50 (H1047R): T47D (H1047R) selectivity over SKBR3 (WT) filled in.
1. Cc1cc(C(C)Nc2ccccc2C(=O)O)c2nc(C3CCC(C)CC3)cc(=O)n2c1 (centres unmarked)
2. Cc1cc([C@@H](C)Nc2ccccc2-c2ccnnc2)c2nc(-c3cccnc3)c(C)c(=O)n2c1
3. Cc1cc([C@H](C)Nc2ccccc2C(=O)O)c2nc(-c3ccc(C#CC4(C)CCC4)c(F)c3)c(C)c(=O)n2c1
4. Cc1cc(C(C)Nc2ccccc2C(=O)O)c2nc(-c3ccc(C(=O)NO)cc3)cc(=O)n2c1 (centres unmarked)
5. Cc1cc([C@H](C)Oc2ccccc2C2(O)CS(=O)(=O)C2)c2nc(-c3cccc(F)c3)c(C)c(=O)n2c1 (single isomer, unassigned)

1: C (C denotes ≤5-fold); 2: C (C denotes ≤5-fold); 3: C (C denotes ≤5-fold); 4: C (C denotes ≤5-fold); 5: A (A denotes >20-fold)

Lab note: each molecule below needs its T47D pAKT S473 HTRF IC50 (H1047R): T47D (H1047R) selectivity over SKBR3 (WT) filled in.
1. Cc1cc(C(C)Nc2ccccc2C(=O)O)c2nc(N3CCC(NS(C)(=O)=O)CC3)cc(=O)n2c1 (centres unmarked) [Compound 434]
2. Cc1cc([C@H](C)Nc2ccccc2)c2nc(-c3cc(F)c4c(N)n[nH]c4c3)cc(=O)n2c1

1. C (C denotes ≤5-fold)
2. C (C denotes ≤5-fold)
